The origin of these recorded values is patent US20040072240A1.

molecular target: HLA A2.1 molecule (human); assay: T2 cells, flow cytometry; P1Y variant against its natural peptide
Readout Kind: RA WT/RA Y1
// response body must contain only the number

- YLADTNSLAV (modifications not checked) [gp100 570Y1]: 3.4

Next, consider the following binder.
## Task Quick one: RA WT/RA Y1 for YLGTHTMEV (modifications not checked) [P1Y variant of gp100 178] ?
## Result 0.8
